Where do these numbers come from? They come from patent US20150141381A1.

Test system: S. aureus RN450
Assay: In Vitro Anti-Bacterial Activity Assay (MIC), gram positive
Type: cell-based
Conditions: Staphylococcus aureus, RN450, 18 h, MIC class, Table 3 (Continued); read-out: Gram+ activity
Readout label: MIC

Example entries begin here.
INSERT INTO measurements (molecule, experimental_result) VALUES
  ('CN(C)c1cc(C#Cc2ccc(F)cc2)c(O)c2c1C[C@H]1C[C@H]3[C@H](N(C)C)C(O)=C(C(N)=O)C(=O)[C@@]3(O)C(O)=C1C2=O', '< 4 µg/mL'),
  ('CC1c2cccc(O)c2C(=O)C2=C(O)[C@]3(O)C(=O)C(C(N)=O)=C(O)[C@@H](N(C)C)[C@@H]3[C@@H](OC(=O)C3CCC3)[C@@H]21 (stereo partly drawn)', '< 4 µg/mL');

Now, please, on to the next molecule.
-- ask # lookup: MIC of CN(C)c1cc(-c2ccc(F)cc2F)c(O)c2c1C[C@H]1C[C@H]3[C@H](N(C)C)C(O)=C(C(N)=O)C(=O)[C@@]3(O)C(O)=C1C2=O
-- reply < 4 µg/mL

###

Tested on: E. coli mL308 225
Test: In Vitro Anti-Bacterial Activity Assay (MIC), gram negative
Format: cell-based
Settings: Escherichia coli, ML308225, 18 h, gram negative bacteria; read-out: Antibiotic Activity Gram − (MIC)
The reader will find reported MIC values listed item by item below.

Example entries begin here.
INSERT INTO measurements (line_notation, test_target, readout_label, experimental_result) VALUES
  ('CN(C)[C@@H]1C(O)=C(C(N)=O)C(=O)[C@@]2(O)C(O)=C3C(=O)c4c(O)ccc(-c5ccc(CN6CCOCC6)c6ccccc56)c4C[C@H]3C[C@@H]12', 'E. coli mL308 225', 'MIC', '< 4 µg/mL'),
  ('COc1ccc(CN(C)C)cc1-c1cc(C(C)(C)C)c(O)c2c1C[C@H]1C[C@H]3[C@H](N(C)C)C(O)=C(C(N)=O)C(=O)[C@@]3(O)C(O)=C1C2=O', 'E. coli mL308 225', 'MIC', '> 4 µg/mL'),
  ('CCCCN(c1ccc2c(c1O)C(=O)C1=C(O)[C@]3(O)C(=O)C(C(N)=O)=C(O)[C@@H](N(C)C)[C@@H]3[C@@H](O)[C@@H]1[C@H]2C)C1CCN(C)CC1', 'E. coli mL308 225', 'MIC', '> 4 µg/mL');

-- ask # lookup: MIC of CN(C)[C@@H]1C(O)=C(C(N)=O)C(=O)[C@@]2(O)C(O)=C3C(=O)c4c(O)ccc(CNC(=O)c5cc(O)ncn5)c4C[C@H]3C[C@@H]12
-- reply > 4 µg/mL

-- ask # lookup: MIC of COCc1ccc(O)c2c1C[C@H]1C[C@H]3[C@H](N(C)C)C(O)=C(C(N)=O)C(=O)[C@@]3(O)C(O)=C1C2=O
-- reply < 4 µg/mL

-- ask # lookup: MIC of COC(=O)O[C@@]12C(=O)C(C(N)=O)=C(O)[C@@H](N(C)C)[C@@H]1C[C@@H]1Cc3cccc(O)c3C(=O)C1=C2O
-- reply > 4 µg/mL

-- ask # lookup: MIC of CN(C)c1cc(CNCCCC(F)(F)F)c(O)c2c1C[C@H]1C[C@H]3[C@H](N(C)C)C(O)=C(C(N)=O)C(=O)[C@@]3(O)C(O)=C1C2=O
-- reply < 4 µg/mL

-- ask # lookup: MIC of CN(C)[C@@H]1C(O)=C(C(N)=O)C(=O)[C@@]2(O)C(O)=C3C(=O)c4c(O)ccc(C(=O)C(=O)N5CCOCC5)c4C[C@H]3C[C@@H]12
-- reply > 4 µg/mL

-- ask # lookup: MIC of C[C@H]1c2ccc(-c3cccc(C=O)c3)c(O)c2C(=O)C2=C(O)[C@]3(O)C(=O)C(C(N)=O)=C(O)[C@@H](N(C)C)[C@@H]3[C@@H](O)[C@@H]21
-- reply < 4 µg/mL

-- ask # lookup: MIC of CN(C)[C@@H]1C(O)=C(C(N)=O)C(=O)[C@@]2(O)C(O)=C3C(=O)c4c(O)c(CNc5ccccc5)cc(I)c4C[C@H]3C[C@@H]12
-- reply > 4 µg/mL

-- ask # lookup: MIC of CN(C)c1cc(CNOC(C)(C)C)c(O)c2c1C[C@H]1C[C@H]3[C@H](N(C)C)C(O)=C(C(N)=O)C(=O)[C@@]3(O)C(O)=C1C2=O
-- reply < 4 µg/mL

-- ask # lookup: MIC of CCCN(C)Cc1cc(N(C)C)c2c(c1O)C(=O)C1=C(O)[C@]3(O)C(=O)C(C(N)=O)=C(O)[C@@H](N(C)C)[C@@H]3C[C@@H]1C2
-- reply > 4 µg/mL
